System: A549 NSCLC
Experiment: NCI tumour cell line growth inhibition, 48 h
reported-property: TGI

Sample `N#Cc1c(N2CCN(c3ccc([N+](=O)[O-])cc3)CC2)[n+](=O)c2ccc(-c3ccc([N+](=O)[O-])cc3)cc2n1[O-]` ; TGI observed: > 100 µM

Sample `O=C(NCCCCCCO)c1cccc2cc3ccccc3nc12` ; TGI observed: 31.5 µM

Sample `COC(=O)c1ccc(CN2C(=O)C(Cl)=C(Nc3ccc(OC)c(Cl)c3)C2=O)cc1` ; TGI observed: > 50 µM

Sample COC(=O)C(=O)C(C(=O)C(N)=O)c1nc2ccc(C(=O)c3ccccc3)cc2[nH]c1=O (stereo unspecified) ; TGI observed: > 100 µM

Sample `CCCCN(CC)c1ncnc2ccc(Br)cc12` ; TGI observed: 45.6 µM

Sample `Nc1nc(N)nc(CC(=O)O)n1` ; TGI observed: > 100 µM

Sample `CC[C@H](Nc1nc(N)nc(C2CC2)c1C#N)c1nc2cccc(NCc3ccc(C(=O)NO)cc3)c2c(=O)n1-c1ccccc1` ; TGI observed: 4.52 µM

Sample COC(=O)C1Cc2c([nH]c3ccccc23)C(c2ccccc2O)N1Cc1ccccc1 (stereo unspecified) ; TGI observed: > 46.4 µM

Sample `COC(=O)c1cc(-c2ccc(OC)cc2)[nH]c1N/N=C/c1c(Cl)cccc1Cl` ; TGI observed: 4.48 µM

Sample Cc1cn(CCOCCOC(=O)NC(CCCNC(N)=O)C(=O)O)c(=O)[nH]c1=O (stereo unspecified) ; TGI observed: > 100 µM

Sample `N=c1ccc2nc3c(cc(N)c4ccccc43)oc-2c1` ; TGI observed: 1.05 µM

Sample `Nc1ccc2c(c1)NC(=O)[C@@H]1CCCN1C2=O` ; TGI observed: > 100 µM

Sample `NNC(=O)Cn1ccnn1` ; TGI observed: > 100 µM

Sample COc1cc2c3c(c1OC)C1(C=CC(=O)C=C1)CC3NCC2 (stereo unspecified) ; TGI observed: > 100 µM

Sample `O=C(Nc1ccc(Br)cc1)Nc1nn(C(=O)Nc2ccc(Br)cc2)c2ccccc12` ; TGI observed: > 100 µM

Sample `CC1(C)[C@@H](OC(N)=O)C=C[C@]2(CO)[C@H]3CC[C@]4(C)[C@@H](c5ccc(=O)oc5)[C@@H](Cl)C[C@]4(O)C3=CC[C@@H]12` ; TGI observed: 0.00192 µM

Sample CC(C(=O)O)c1ccc(-c2ccccc2)c(F)c1 (stereo unspecified) ; TGI observed: > 100 µM

Sample `COc1cc2c3c(ncc2c(OC)c1OC)-c1cc2c(cc1C3)OCO2` ; TGI observed: > 100 µM

Sample `C[C@]12CC[C@@H](OC(=O)N(CCCl)N=O)C[C@@H]1CC[C@@H]1[C@@H]2CC[C@]2(C)C(=O)CC[C@@H]12` ; TGI observed: 4.69 µM

Sample `Nn1c(Sc2nc3ccccc3c(=O)n2N)nc2ccccc2c1=O` ; TGI observed: 39 µM

Sample `O=NN1CCCS1(=O)=O` ; TGI observed: > 100 µM

====

Tested on: OVCAR-5 ovarian
Test: NCI tumour cell line growth inhibition, 48 h
*1 amine or outer side, *2 acyl side, *3 side chain or, on linkers, in order; H or OH if unused. Where a SMILES comes first, the peptide text is derived from it. Bridges are numbered along the chain shown (N, C = ends). [ ]: non-standard residue; d: D form. ξ: configuration not given here. X35 = CC[C@H](C)[C@@H](N[*:1])[C@@H](O)CC(=O)O[C@H](C(=O)[C@H](C)C(=O)[*:2])C(C)C; NMeY = CN[C@@H](Cc1ccc(O)cc1)C(=O)O; dNMeL = CN[C@H](CC(C)C)C(=O)O; ξΔPro = O=C(O)C1C=CCN1
Exercise: for every item that follows, state its recorded TGI.

Sample CC1=NOC(=O)C1N=Nc1ccc(Br)c(C)c1 (centres undefined) ; TGI observed: 72 µM

Sample `CCCCCCNC(=O)Oc1ccc(/C(=C(/C)Cc2ccc(OC)cc2)c2ccc(OCCN(C)C)cc2)cc1` ; TGI observed: 8.99 µM

Sample `COc1cc2oc(-c3ccc4c(c3)OCO4)c(OC)c(=O)c2c(O)c1OC` ; TGI observed: > 50 µM

Sample CCN(CC)C1Oc2cc3c(cc2C(c2cc(OC)c(OC)c(OC)c2)C1C)OCO3 (centres undefined) ; TGI observed: > 47.8 µM

Sample COc1ccc2c(c1)C(=O)C1CCC(=O)N1C2c1ccc2c(c1)OCO2 (centres undefined) ; TGI observed: 28.1 µM

Sample NC(=S)N/N=C1\CCCC1C(O)(C(F)(F)Cl)C(F)(F)Cl (centres undefined) ; TGI observed: > 10 µM

Sample `Cn1c2ccc(C3=NCCN3)cc2c2cc(C3=NCCN3)ccc21` ; TGI observed: > 100 µM

Sample CC12CC=CCC1CCC1C2CCC2(C)C(c3ccc(=O)oc3)CCC12O (centres undefined) ; TGI observed: 0.482 µM

Sample COc1cc(/C=C2\CC3C4CC=C5C[C@@H](O)CC[C@]5(C)C4CC[C@]3(C)C2=O)ccc1OCCCn1ccnc1 (some centres undefined) ; TGI observed: 41.9 µM

Sample `C[C@]12CC[C@H]3[C@@H](CC[C@]4(O)C[C@@H](O)CC[C@]34CO)[C@@]1(O)CC[C@@H]2C1=CC(=O)OC1` ; TGI observed: 10.5 µM

Sample `COc1cc2ncnc3c2cc1OCCCCCN(C)Cc1ccc(Br)cc1N3` ; TGI observed: > 100 µM

Sample `COC(=O)c1cc(-c2ccc(OC)cc2)[nH]c1N/N=C/c1c(Cl)cccc1Cl` ; TGI observed: 8.37 µM

Sample `O=C(Nc1ccc(Br)cc1)Nc1nn(C(=O)Nc2ccc(Br)cc2)c2ccccc12` ; TGI observed: > 100 µM

Sample `COc1cc(CNC(=S)CCCCCCCCCCC(C)C)ccc1O` ; TGI observed: > 100 µM

Sample COC(=O)[C@@]1(C)CCC[C@]2(C(=O)O)C3Cc4occc4[C@H](C)[C@@H]3CCC21 (some centres undefined) ; TGI observed: > 100 µM

Sample `CC[C@@]12C=CCN3CC[C@]4(c5cc(NC(=O)COc6cc(OCC(=O)Nc7cc8c(cc7OC)N(C)[C@H]7[C@@](O)(C(=O)OC)[C@H](OC(C)=O)[C@]9(CC)C=CCN%10CC[C@]87[C@@H]%109)cc7oc(-c8ccccc8)cc(=O)c67)c(OC)cc5N(C)[C@@H]4[C@](O)(C(=O)OC)[C@H]1OC(C)=O)[C@H]32` ; TGI observed: 48.2 µM

Sample `O=[N+]([O-])c1cc(F)ccc1Sc1ccccc1` ; TGI observed: > 10 µM

Sample `COc1cc2oc(=O)cc(C)c2c(OC)c1OC(C)=O` ; TGI observed: > 100 µM

Sample `CC(=O)c1cc(-c2ccccc2N)n(-c2ccc3c(c2)OCO3)c1C` ; TGI observed: > 100 µM

Sample `N#C/C(=C1/c2cc([N+](=O)[O-])ccc2-c2c1cc([N+](=O)[O-])cc2[N+](=O)[O-])N1CCCCC1` ; TGI observed: > 100 µM

Sample CC[C@H](C)[C@H]1NC(=O)[C@@H](NC(=O)[C@@H](CC(C)C)N(C)C(=O)C2C=CCN2)[C@@H](C)OC(=O)[C@H](Cc2ccc(OC)cc2)N(C)C(=O)[C@@H]2CCCN2C(=O)[C@H](CC(C)C)NC(=O)[C@@H](C)C(=O)[C@H](C(C)C)OC(=O)C[C@@H]1O (some centres undefined) (H-[ξΔPro][dNMeL]T[X35]LP[NMeY](Me); ester 3-C) ; TGI observed: > 50 µM

Sample `CC(C)(C)n1cc(-c2ccnc(NCCCNS(=O)(=O)c3ccc(Br)cc3)c2)c(-c2cccc(O)c2)n1` ; TGI observed: 3.5 µM

Sample `CCN(CCCl)c1cccc(NC(=O)c2ccc(C(=O)Nc3cccc(CN(C)C)c3)cc2)c1` ; TGI observed: 32 µM

Sample `O=c1nc2ccc3sc4ccccc4c(=O)c3n2c(=O)[nH]1` ; TGI observed: > 100 µM

Sample `CCOC(=O)Nc1nc2cc(OCC)ccc2s1` ; TGI observed: > 100 µM

Sample CCOC(=O)c1c(-c2ccccc2)c(C(OC(c2ccccc2)c2c(-c3ccccc3)c(C(=O)OCC)n3ccccc23)c2ccccc2)c2ccccn12 (centres undefined) ; TGI observed: > 100 µM

Sample `O=c1c2cc(Br)ccc2ncn1COCc1ccccc1` ; TGI observed: > 100 µM

Sample `Cc1nc2c(n1-c1ccccc1)C(=O)c1ccccc1C2=O` ; TGI observed: > 100 µM

Sample `O=[N+]([O-])c1ccc2c(c1)n1c(N3CCCC3)[n+]3ccccc3c1c1c3cccc[n+]3c(N3CCCC3)n21` ; TGI observed: > 100 µM

Sample CS(=O)(=O)[O-].CS(=O)(=O)[O-].NC1CCCCC1N.[Pt+4] (centres undefined) ; TGI observed: > 100 µM

Sample `COc1c(Sc2ccccc2)cc(Sc2ccccc2)c2cccnc12` ; TGI observed: > 100 µM

Sample `COc1ccc([C@@H](O)c2cc(-c3ncnc4cc(N5CCOCC5)ccc34)c(F)cc2Cl)nn1` ; TGI observed: > 100 µM

Sample CC1=C(/C=C/C(C)=C/C=C/C(C)=C/C=C/C=C(C)/C=C/C=C(C)/C=C/C2=C(C)C(=O)C(O)CC2(C)C)C(C)(C)CC(O)C1=O (centres undefined) ; TGI observed: > 100 µM

Sample `COc1cc2oc(=O)cc(C)c2cc1OC` ; TGI observed: > 100 µM
